# RUN_DESCRIPTION: basal RPMI8226 mitochondrial membrane potential changes, profiling panel, cell-based, JC-1 fluorescence, 24 h, 100 nL compound (AID 1169); note: test concentration not given here
# CONDITION_DESCRIPTION: RPMI8226 myeloma, JC-1 mitochondrial potential fluorescence, higher = more signal
Outcome: T for z-score of at least -0.4; F for anything lower.

{"columns": ["COMPOUND", "QUALITATIVE_LABEL"],
 "data": [
  ["COc1ccc(C(=O)Nc2ccc(CN3C(=O)[C@@]4(O[C@@H](CC(=O)N(CCO)Cc5ccccc5)[C@H]([Si](C)(C)c5ccc(OC)cc5)[C@H]4C)c4ccccc43)cc2)cc1", "F"],
  ["C=C(C(=O)CC[C@H](OC(=O)c1ccccc1-c1ccccc1C(=O)O)c1ccc(OCCO)cc1)C(C)C", "T"]
]}

Prompt: Kindly determine if z-score recorded for COc1ccc(NN2C(C(O)c3ccc(F)cc3)C=CC3C(=O)N(C4CCCCC4)C(=O)C32)cc1 (stereo not drawn) is above or exactly -0.4.
Completion: T

Prompt: Kindly determine if z-score recorded for CC1C2C(CCCO)=CC(C3C(=O)N(C(N)=O)C(=O)C23)N1Cc1cccc(OC(F)(F)F)c1 (stereo not drawn) is above or exactly -0.4.
Completion: T

Prompt: Kindly determine if z-score recorded for O=C1c2ccccc2[C@](Cc2ccccc2I)(C(=O)NCCN2CCOCC2)[C@H](c2ccc(CO)cc2)N1Cc1ccccc1C(F)(F)F is above or exactly -0.4.
Completion: F

Prompt: Kindly determine if z-score recorded for Cc1ccc(S(=O)(=O)N2[C@@H](c3ccccc3)C(C(=O)O)=CC[C@H]2c2ccc(F)cc2)cc1 is above or exactly -0.4.
Completion: T

Prompt: Kindly determine if z-score recorded for O=C1OCCC/C=C\[C@H]2OC34C=CCN(Cc5ccccc5)C(=O)[C@H]3N(CCO)C(=O)[C@@H]4C12 (stereo partly drawn) is above or exactly -0.4.
Completion: T

Prompt: Kindly determine if z-score recorded for C[C@]1(C(=O)O)c2ccccc2C(=O)N(Cc2cc(C(F)(F)F)cc(C(F)(F)F)c2)[C@H]1c1ccc(CO)cc1 is above or exactly -0.4.
Completion: T
